IC50 for assorted compounds
target: myeloperoxidase (MPO) (Homo sapiens, UniProt P05164); experiment: MPO peroxidation assay (Amplex Red assay); assay type: biochemical; settings: MPO peroxidation, potency range class; read-out: Amplex Red IC50

The examples below pair each entry with its known result.
[[record]]
compound = "Nc1cc(OCc2ccc(OC(F)(F)F)cc2)c2nn[nH]c2n1"
measured_value = "1 to 100 nM"

[[record]]
compound = "Nc1cc(OCc2ccc(-c3cccnc3)cc2OC(F)(F)F)c2nn[nH]c2n1"
measured_value = "1 to 100 nM"

[[record]]
compound = "COc1ccc(-c2cc(F)c(COc3cc(N)nc4[nH]nnc34)c(F)c2)cn1"
measured_value = "1 to 100 nM"

[[record]]
compound = "CC(Oc1cc(N)nc2[nH]nnc12)c1ccc(OC(F)(F)F)cc1 (stereo not drawn)"
measured_value = "1000 to 10000 nM"

[[record]]
compound = "CN(C)Cc1cn(-c2ccc(COc3cc(N)nc4[nH]nnc34)c(OC(F)(F)F)c2)cn1"
measured_value = "101 to 999 nM"

[[record]]
compound = "CC1CC(c2ccccc2)CCC1COc1cc(N)nc2[nH]nnc12 (stereo not drawn)"
measured_value = "101 to 999 nM"

[[record]]
compound = "CN1CCN(c2ccc(-c3cccc(COc4cc(N)nc5[nH]nnc45)c3)cc2)CC1"
measured_value = "101 to 999 nM"

[[record]]
compound = "Nc1cc(OCc2cccc(-c3cncc(F)c3)c2)c2nn[nH]c2n1"
measured_value = "1 to 100 nM"

[[record]]
compound = "Nc1ccc(-c2cc(F)c(COc3cc(N)nc4[nH]nnc34)c(F)c2)cn1"
measured_value = "1 to 100 nM"

[[record]]
compound = "Nc1cc(OCc2ccc(-c3ccnc(O)c3)cc2OC(F)(F)F)c2nn[nH]c2n1"
measured_value = "1 to 100 nM"


# compound CS(=O)(=O)c1cncc(-c2ccc(COc3cc(N)nc4[nH]nnc34)c(OC(F)(F)F)c2)c1 ; its IC50 = 101 to 999 nM

# compound Nc1cc(OCc2ccc(C(=O)NC3CCCCC3)cc2Cl)c2nn[nH]c2n1 ; its IC50 = 1 to 100 nM

---

pIC50 for assorted compounds
target: myeloperoxidase (MPO) (Homo sapiens); assay: MPO chlorination assay (APF assay); assay type: biochemical; conditions: MPO chlorination, potency range class; read-out: APF IC50
pIC50: −log10 of the molar value.

The examples below pair each entry with its known result.
[[record]]
compound = "Nc1cc(OCc2ccc(-n3cc(C(F)(F)F)cn3)cc2OC(F)(F)F)c2nn[nH]c2n1"
measured_value = "5.00 to 6.00"

[[record]]
compound = "Nc1cc(OCc2cc(Cl)ccc2OC2CCCC2)c2nn[nH]c2n1"
measured_value = "6.00 to 7.00"


Consider the record given below.
# compound CC(Oc1cc(N)nc2[nH]nnc12)c1cccc(F)c1 (stereo not drawn) ; its pIC50 = 6.00 to 7.00

---

Target: myeloperoxidase (MPO) (Homo sapiens)
Sequence (P05164 49-745): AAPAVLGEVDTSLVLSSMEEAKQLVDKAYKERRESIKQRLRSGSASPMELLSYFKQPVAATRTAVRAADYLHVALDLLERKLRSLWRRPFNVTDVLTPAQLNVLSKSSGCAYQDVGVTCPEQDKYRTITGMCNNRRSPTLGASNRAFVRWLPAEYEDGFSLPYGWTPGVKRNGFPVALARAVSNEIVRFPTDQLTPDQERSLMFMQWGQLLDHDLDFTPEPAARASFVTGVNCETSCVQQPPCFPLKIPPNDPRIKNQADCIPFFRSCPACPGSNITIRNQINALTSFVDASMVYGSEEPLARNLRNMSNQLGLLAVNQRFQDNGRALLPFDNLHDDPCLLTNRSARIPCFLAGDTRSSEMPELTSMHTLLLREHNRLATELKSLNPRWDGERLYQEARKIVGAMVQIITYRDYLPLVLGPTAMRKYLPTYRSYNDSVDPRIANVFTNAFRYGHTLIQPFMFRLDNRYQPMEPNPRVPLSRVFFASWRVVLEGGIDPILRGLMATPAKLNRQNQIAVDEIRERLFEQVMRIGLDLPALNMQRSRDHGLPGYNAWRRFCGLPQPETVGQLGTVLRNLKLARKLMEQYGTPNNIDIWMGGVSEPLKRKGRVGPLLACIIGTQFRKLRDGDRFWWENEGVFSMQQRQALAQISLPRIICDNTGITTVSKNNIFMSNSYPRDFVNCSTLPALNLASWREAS
Assay: MPO peroxidation assay (Amplex Red assay)
Assay type: biochemical
Settings: MPO peroxidation, potency range class; read-out: Amplex Red IC50
pIC50: −log10 of the molar value.
pIC50 for assorted compounds

The examples below pair each entry with its known result.
[[record]]
compound = "Nc1cc(OCc2c(F)ccc(-c3ccc(N4CCNCC4)nc3)c2Cl)c2nn[nH]c2n1 [Example 344]"
measured_value = "7.00 to 9.00"

[[record]]
compound = "CC(Oc1cc(N)nc2[nH]nnc12)c1cccc(F)c1 (stereo not drawn) [Example 139]"
measured_value = "7.00 to 9.00"

[[record]]
compound = "CNC(=O)CNC(=O)c1ccc(Cl)c(COc2cc(N)nc3[nH]nnc23)c1 [Example 187]"
measured_value = "6.00 to 7.00"

[[record]]
compound = "COc1ccc(C(F)(F)F)cc1COc1cc(N)nc2[nH]nnc12 [Example 30]"
measured_value = "7.00 to 9.00"

[[record]]
compound = "Nc1cc(OCC2CCCCC2)c2nn[nH]c2n1 [Example 132]"
measured_value = "6.00 to 7.00"

[[record]]
compound = "Nc1cc(OCc2c(F)cc(-c3ccc(OCc4ccccc4)nc3)cc2F)c2nn[nH]c2n1 [Example 339]"
measured_value = "6.00 to 7.00"


# compound Nc1cc(OCc2cc(-c3ccc(CO)nc3)ccc2F)c2nn[nH]c2n1 [Example 347] ; its pIC50 = 7.00 to 9.00

# compound Nc1cc(OCc2cc([N+](=O)[O-])ccc2Cl)c2nn[nH]c2n1 [Example 249] ; its pIC50 = 7.00 to 9.00

# compound COc1ncc(-c2cc(F)c(COc3cc(N)nc4[nH]nnc34)c(F)c2)cn1 [Example 334] ; its pIC50 = 7.00 to 9.00

# compound Cc1nccn1-c1cccc(COc2cc(N)nc3[nH]nnc23)c1 [Example 7] ; its pIC50 = 6.00 to 7.00

# compound N#Cc1ccc(-c2cc(F)c(COc3cc(N)nc4[nH]nnc34)c(F)c2)cn1 [Example 338] ; its pIC50 = 7.00 to 9.00

# compound CC(NC(=O)c1ccc(F)c(COc2cc(N)nc3[nH]nnc23)c1)c1ccccc1 (stereo not drawn) [Example 157] ; its pIC50 = 7.00 to 9.00

---

target: myeloperoxidase (MPO) (Homo sapiens); experiment: MPO peroxidation assay (Amplex Red assay); format: biochemical; conditions: MPO peroxidation, potency range class; read-out: Amplex Red IC50
Quantity name: IC50

The examples below pair each entry with its known result.
[[record]]
compound = "Nc1cc(OCC2CCCc3ccccc32)c2nn[nH]c2n1 (stereo not drawn)"
measured_value = "101 to 999 nM"

[[record]]
compound = "Nc1cc(OCc2ccc(C(=O)N3CCC(CO)C3)cc2Cl)c2nn[nH]c2n1 (stereo not drawn)"
measured_value = "101 to 999 nM"

[[record]]
compound = "Nc1cc(OCc2cc(C(F)(F)F)ccc2Cl)c2nn[nH]c2n1"
measured_value = "1 to 100 nM"

[[record]]
compound = "N#Cc1cccc(-c2ccc(COc3cc(N)nc4[nH]nnc34)cc2)c1"
measured_value = "1000 to 10000 nM"

[[record]]
compound = "Cc1nccn1-c1ccc(COc2cc(N)nc3[nH]nnc23)c(OC(F)(F)F)c1"
measured_value = "1 to 100 nM"

[[record]]
compound = "Nc1cc(OCc2ccc(C(=O)Nc3ccccc3)cc2Cl)c2nn[nH]c2n1"
measured_value = "1 to 100 nM"

[[record]]
compound = "COc1cccc(Cl)c1-c1ccc(COc2cc(N)nc3[nH]nnc23)cc1"
measured_value = "1 to 100 nM"

[[record]]
compound = "Nc1cc(OCc2c(Cl)cccc2OC(F)(F)F)c2nn[nH]c2n1"
measured_value = "1 to 100 nM"

[[record]]
compound = "Nc1cc(OCC2CCc3ccccc3C2)c2nn[nH]c2n1 (stereo not drawn)"
measured_value = "101 to 999 nM"

[[record]]
compound = "Nc1cc(OCc2cccc(-c3ccccc3Cl)c2)c2nn[nH]c2n1"
measured_value = "1 to 100 nM"


Measured on myeloperoxidase (MPO) (Homo sapiens), Nc1cc(OCc2ccccc2OCc2ccccc2)c2nn[nH]c2n1 has a documented IC50 of 1 to 100 nM

Measured on myeloperoxidase (MPO) (Homo sapiens), Nc1cc(OCc2ccc(-n3cc4ccccc4n3)cc2OC(F)(F)F)c2nn[nH]c2n1 has a documented IC50 of 1 to 100 nM

Measured on myeloperoxidase (MPO) (Homo sapiens), Nc1cc(OCc2ccc(-n3ccccc3=O)cc2OC(F)(F)F)c2nn[nH]c2n1 has a documented IC50 of 101 to 999 nM

Measured on myeloperoxidase (MPO) (Homo sapiens), COc1ccc(-c2ccc(COc3cc(N)nc4[nH]nnc34)cc2)cc1 has a documented IC50 of 1 to 100 nM

Measured on myeloperoxidase (MPO) (Homo sapiens), Nc1cc(OCc2c(F)cc(-c3cccnc3)cc2F)c2nn[nH]c2n1 has a documented IC50 of 1 to 100 nM

Measured on myeloperoxidase (MPO) (Homo sapiens), Nc1cc(OCc2ccc(Br)cc2OC(F)(F)F)c2nn[nH]c2n1 has a documented IC50 of 1 to 100 nM
